Reference for the values: PubChem BioAssay (NCI)

- System: UO-31 renal
- MEASUREMENT_NOTES: NCI tumour cell line growth inhibition, 48 h; in the data active = GI50 below about 0.43 µM; inactive = the rest
Labels: active, inactive

FC(F)(F)Oc1cccc(-c2cc(NCCCCCCNc3cc(-c4cccc(OC(F)(F)F)c4)nc4ccc(N5CCCC5)cc34)c3cc(N4CCCC4)ccc3n2)c1; inactive
c1ccc(-c2c(-c3ccccc3)[n+](Cc3ccc4ccccc4c3)c(-c3ccc(-c4nc5ccccc5s4)cc3)n2Cc2ccc3ccccc3c2)cc1; active
O=C(Nc1cccc(-n2cc(-c3ccncc3)c(-c3cc(O)cc(Cl)c3)n2)c1)c1ccc(N2CCOCC2)c(C(F)(F)F)c1; inactive
CC(C)(CO)CNC(=O)c1ccc2[nH]c(O)c(N=Nc3ccc(S(N)(=O)=O)cc3)c2c1; inactive
CC1(C)N=C(N)N=C(N)N1c1ccc(CCC(=O)Nc2ccc(S(=O)(=O)F)cc2)cc1; inactive
CC1(C)OC[C@@H]([C@@]2(CO[Si](c3ccccc3)(c3ccccc3)C(C)(C)C)CC=CC(=O)O2)O1; inactive
CCN(CC)Cc1cc(Nc2nc(NC3CCC(N(C)C)CC3)c3ccccc3n2)ccc1OC (stereo not drawn); inactive
O=C1c2cccc(Oc3ccccc3)c2C(=O)c2cccc(Oc3ccccc3)c21; inactive

---

- System: NCI-H522 lung
- MEASUREMENT_NOTES: NCI tumour cell line growth inhibition, 48 h
Param threshold (30 µM) applies to TGI; output TRUE when value >= threshold, FALSE when value < threshold.

CCN(C)c1nc(N(C)CC)c2nc(N(C)CC)nc(N(C)CC)c2n1; TRUE
CC1=C(C(=O)Nc2ccccc2)C(c2ccc(N(C)C)cc2)C(C(=O)Nc2ccccc2)=C(C)N1; TRUE
C[C@]12CCC3[C@@H](CCC45OC4C(=O)CC[C@]35C)C1Cc1cnn(-c3ccc(F)cc3)c1N2 (some centres undefined); TRUE
OCc1ccc2c(c1)CC1(C2)Cc2cc3c(cc2C1O)CCC3 (centres undefined); FALSE
COc1ccc2nc(NC(=O)/C(C#N)=C/c3ccccc3)sc2c1; TRUE
CCc1cccc(C)c1NC(=O)CCc1nc(=S)[nH][nH]1; TRUE
CC(=O)O[C@H]1C(=O)[C@@]2(C)C([C@H](OC(=O)c3ccccc3)[C@]3(O)C[C@H](OC(=O)[C@H](O)[C@@H](NC(=O)c4ccccc4)c4ccccc4)C(C)=C1C3(C)C)[C@]1(OC(C)=O)CO[C@@H]1C[C@@H]2O (some centres undefined); FALSE
CCc1c(O)cc(=O)oc1-c1ccc(OC)c(OC)c1; TRUE
O=C(OCc1ccc2c(Br)cc(Br)c(O)c2n1)c1cc2ccccc2[nH]1; FALSE
COC(=O)C(Cc1cn(C(C)n2cc(CC(NC(C)=O)C(=O)OC)c3ccccc32)c2ccccc12)NC(C)=O (centres undefined); TRUE
CC(=O)O[C@@H](c1nccn1Cc1ccccc1)[C@H]1OC(C)(C)O[C@@H]1[C@H]1COC(C)(C)O1; TRUE
CC1=NN(C(=O)Cc2ccccc2)C(=O)/C1=C\c1ccc(O)cc1; TRUE
Cc1nc(N)nc(CCC(=O)Nc2cccc(C(F)(F)F)c2)c1-c1ccc(Cl)cc1; TRUE
O=C1c2cccc(Oc3ccccc3)c2C(=O)c2cccc(Oc3ccccc3)c21; TRUE
CN(C)c1ccc(/C=C(\NC(=O)c2ccccc2)C(=O)NC(CC(=O)O)C(=O)O)cc1 (centres undefined); TRUE
Cc1ccc(-c2cc(-c3ccco3)c(C#N)c(=S)[nH]2)cc1; TRUE
O=[N+]([O-])c1cccc(C2=NN(c3ccccc3)C3c4cc(Br)ccc4OCC23)c1 (centres undefined); TRUE
O=c1c2ccccc2sc2c(CO)ccc(NCCN3CCCCC3)c12; FALSE

---

- Test system: MDA-MB-231 breast
- MEASUREMENT_NOTES: NCI tumour cell line growth inhibition, 48 h
QUANTITY_NAME: TGI (µM)

CN(CCN1CCCC1)C1CCc2cc(Cl)c(Cl)cc2C1 (stereo unspecified); 34.7
Cc1nc2ccc(Cl)cc2c(-n2ccnc2)c1CCn1ccnc1; 48.9
CC(C)C(Br)CCC1=CCC(Br)(Br)C1 (stereo unspecified); 20.7
COC(=O)/C=C(/C=C1/C(C#N)=C(N)N(c2ccc(Cl)cc2)C1(C)/C(=C\C(=O)OC)C(=O)OC)C(=O)OC (stereo unspecified); 53.4
C[C@]12CC[C@H]3[C@@H](CCC4=CC(=O)CC[C@@]43C)[C@@H]1CC[C@@H]2c1csc(N)n1; 28.7
COc1cc2c(cc1Nc1nc(N3CCc4ccccc43)c3cc[nH]c3n1)N(C(=O)CN(C)C)CC2; 12.7
OC1(c2ccc(Cl)c(C(F)(F)F)c2)CCN(CCCC(c2ccc(F)cc2)c2ccc(F)cc2)CC1; 1.52
COc1ccc(C)cc1N1C(=O)C2ON(Cc3ccc(CC(N)=O)cc3)C(c3c4ccccc4c(Cl)c4ccccc34)C2C1=O (stereo unspecified); 49
Nc1nc2c(c3cnccc13)C(c1ccc(Cl)c(Cl)c1)Cc1cnccc1-2 (stereo unspecified); 14.8
COc1cccc(C2c3cc4c(cc3OC(O)C2C)OCO4)c1OC (stereo unspecified); 42.4
OCc1cn(Cc2ccccc2)c2ccccc12; 54.5
CCOC(=O)c1c(N2CCCC2)[nH]c(=O)c(C(c2ccc(OC)cc2)c2c(O)c(C(=O)OCC)c(N3CCCC3)[nH]c2=O)c1O; 88.1
CC(=O)ON1CCCC(P(=O)(OCOC(=O)C(C)(C)C)OCOC(=O)C(C)(C)C)C1=O (stereo unspecified); 5.04
CNC(=O)c1ncccc1Nc1nc(Nc2cc3c(cc2OC)CCCN3C(=O)CN(C)C)nc2[nH]ccc12; 5.3
CCCCCCCCCCCCCCCCCCOc1ccccc1CC(=O)NCC[N+]1(C)CCOCC1; 8.34
COc1ccc2sc3c(NCCCN)nc4ccccc4c3c(=O)c2c1; 3

---

- Test system: A549 NSCLC
- MEASUREMENT_NOTES: NCI tumour cell line growth inhibition, 48 h
Items are presented alongside their recorded TGI.
QUANTITY_NAME: TGI

NCCN1CCCCCc2ccccc21; > 10 µM
N#CNC(N)=NCc1ccccc1; > 100 µM
CCOC(=O)C1C(c2ccc(Cl)cc2Cl)NC(c2ccc(C)cc2)C(C(=O)OC)S1(=O)=O (stereo unspecified); > 100 µM
c1ccc2c(c1)SCCCS2; > 100 µM
Cc1c(C)n(-c2ccccc2)c2nc(S(C)=O)nc(S(C)=O)c12 (stereo unspecified); 31.7 µM
Cc1cccc(NC(=O)c2sc3nc4c(cc3c2N)C(=O)CCC4)c1; > 100 µM
Cc1c(C(=N)C(C#N)C#N)c(=N)oc2c1ccc1ccccc12; > 100 µM
COc1cc2nc(-c3ccc(Cl)cc3)cc(OCCCN3CCOCC3)c2cc1OC; > 100 µM
CCN=c1sc2c(n1NC(=O)c1cc3ccc1CCc1ccc(cc1)CC3)C(=O)c1ccccc1C2=O; 1.71 µM
COC(=O)/C=C(/C=C1/C(C#N)=C(N)N(c2ccc(Cl)cc2)C1(C)/C(=C\C(=O)OC)C(=O)OC)C(=O)OC (stereo unspecified); > 100 µM
O=C(NC1C(=O)NNC1c1cccc([N+](=O)[O-])c1)c1ccccc1 (stereo unspecified); > 100 µM
COc1ccc(C(=O)c2cc(OC)c(OC)c(OC)c2OC)cc1O; > 100 µM
CSCC[C@@H](NC(=O)[C@H](CC(C)C)NC(=O)C(Cc1cnc[nH]1)NC(=O)CNC(=O)[C@@H](NC(=O)[C@H](C)NC(=O)[C@H](Cc1c[nH]c2ccccc12)NC(=O)[C@H](CCC(N)=O)NC(=O)[C@@H](N)CC(N)=O)C(C)C)C(N)=O (stereo partly specified); > 100 µM
O=C(NCCNCCO)c1ccc2c(c1)oc1cc3ccccc3c(=O)n12; > 50 µM
O=C(CCc1cc(O)cc(O)c1)NCCc1cc(OCc2ccccc2)cc(OCc2ccccc2)c1; 23.6 µM
COC(=O)CC(=O)OSc1ccccc1; 77.3 µM
CCN(CC)CCCNc1ccc(C)c2sc3ccccc3c(=O)c12; 1.99 µM
COC(=O)/C=C(\C)CC/C=C(\C)CCC1OC1(C)C (stereo unspecified); 24.1 µM
CN(/N=C1\C(=O)Nc2ccccc21)c1ccccc1; > 100 µM
O=c1c(F)cn2c(=O)n1CCCCCCCn1c(=O)c(F)cn(c1=O)CCCCCCC2; > 100 µM
O=c1c2ccccc2sc2c(CO)ccc(NCCN3CCCCC3)c12; 12.8 µM

---

- Test system: SNB-19 CNS
- MEASUREMENT_NOTES: NCI tumour cell line growth inhibition, 48 h
QUANTITY_NAME: TGI

COC(=O)C1C(=O)O[C@@H](c2ccc3c(c2)OCO3)C1C(=O)OC (mixture of isomers); > 100 µM
CN(C)CCn1c(=O)c2ccc(NCCCN(C)CCCNc3ccc4c(=O)n(CCN(C)C)c(=O)n5c6ccc(O)cc6c(=O)c3c45)c3c(=O)c4cc(O)ccc4n(c1=O)c23; 1.54 µM
N#C/C(=C\c1cc(OCc2ccccc2)c(OCc2ccccc2)cn1)C(N)=O; > 100 µM
O=C1/C(=C\c2ccccc2)CN(C(=O)CCN2CCCCC2)C/C1=C/c1ccccc1; 4.57 µM
Cc1nn(-c2ccc(Cl)cc2)c2ncnc(N/N=C/c3ccccc3O)c12; > 80.4 µM
CC1=NN(C(=O)Cc2ccccc2)C(=O)/C1=C\c1ccc(O)cc1; > 100 µM
CC1(C)N=C(N)N=C(N)N1c1ccc(CCC(=O)Nc2ccc(S(=O)(=O)F)cc2)cc1; > 100 µM
Clc1cccc(-c2sc(-c3cccs3)cc2Cc2cccs2)c1; > 10 µM
COc1cccc(C2c3cc4c(cc3OC(O)C2C)OCO4)c1OC (centres undefined); 74.2 µM
